// data source = patent US20220370416A1

Target: HiBit-KRAS^G12C (Homo sapiens, UniProt P01116, G12C)
Sequence (P01116 1-186 isoform P01116-2 G12C limits assumed): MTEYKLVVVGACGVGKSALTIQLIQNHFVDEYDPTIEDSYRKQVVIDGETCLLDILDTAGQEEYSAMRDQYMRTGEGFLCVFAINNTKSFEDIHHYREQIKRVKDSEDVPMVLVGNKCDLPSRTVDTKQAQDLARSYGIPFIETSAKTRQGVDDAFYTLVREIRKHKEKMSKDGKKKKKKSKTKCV
Experiment: HiBit degradation assay in SW1573 HiBit-KRas^G12C cells
Assay type: cell-based
Set-up: expressed in transfected cells; host or cells: SW1573 (clone E6), modified pcDNA3.1 vector, TK promoter
Conditions: read-out: KRas^G12C-HiBiT (SW1573; 0.5% DMSO) IC50***; SW1573 HiBit-KRas^G12C, 0.5% DMSO, 24 hours
Description: Reagents. SW1573 (CRL-2170) and MiaPaCa-2 (CRL-1420) cells were purchased from ATCC. Both cell lines are […] for the G12C mutation in KRAS. […] Either SW1573 HiBit-KRas^G12C or MiaPaCa-2 HiBit-KRas^G12C cells were plated at 9000 cells/well in a 384 well plate (Corning #3770). […] Plates were then allowed to equilibrate to room temperature and fluorescence was measured using a Perkin-Elmer EnVision. […]
observation_type: DC50

# example entries with known answers
C=C(F)C(=O)N1CCN(c2nc(OCCN3CCC(COCC(=O)N[C@H](C(=O)N4C[C@H](O)C[C@H]4C(=O)N[C@@H](C)c4ccc(-c5ccnn5C)cc4)C(C)(C)C)CC3)nc3c(F)c(-c4cc(O)cc5ccccc45)c(Cl)cc23)C[C@@H]1CC#N (atropisomer, axis not shown) :: 100 to 1000 nM
C=CC(=O)N1CCN(c2nc(O[C@@H]3CCC[C@H]3N3CCC(COCC(=O)N[C@H](C(=O)N4C[C@H](O)C[C@H]4C(=O)N[C@@H](C)c4ccc(-c5scnc5C)cc4)C(C)(C)C)CC3)nc3c(F)c(-c4cc(O)cc5ccccc45)c(Cl)cc23)C[C@@H]1CC#N :: 100 to 1000 nM
C=C(F)C(=O)N1CCN(c2nc(OCCN3CCC(COc4cc([C@H](C(=O)N5C[C@H](O)C[C@H]5C(=O)N[C@@H](C)c5ccc(-c6scnc6C)cc5)C(C)C)on4)CC3)nc3c(F)c(-c4cc(O)cc5ccccc45)c(Cl)cc23)C[C@@H]1CC#N [Compound 168] :: 100 to 1000 nM
C=CC(=O)N1CCN(c2nc(O[C@H](C)CN3CCC(COCC(=O)N[C@H](C(=O)N4C[C@H](O)C[C@H]4C(=O)N[C@@H](C)c4ccc(-c5scnc5C)cc4)C(C)(C)C)CC3)nc3c(F)c(-c4cc(O)cc5ccccc45)c(Cl)cc23)C[C@@H]1CC#N :: 100 to 1000 nM
Cc1ncsc1-c1ccc([C@H](C)NC(=O)[C@@H]2C[C@@H](O)CN2C(=O)[C@@H](NC(=O)COCC2CCN(CCOc3nc(N4CCN(C(=O)/C=C/CN5CCOCC5)[C@@H](CC#N)C4)c4cc(Cl)c(-c5cc(O)cc6ccccc56)c(F)c4n3)CC2)C(C)(C)C)cc1 :: 100 to 1000 nM
C=C(F)C(=O)N1CCN(c2nc(OCCN3CCC(C)(COc4cc([C@H](C(=O)N5C[C@H](O)C[C@H]5C(=O)N[C@@H](C)c5ccc(-c6scnc6C)cc5)C(C)C)on4)CC3)nc3c(F)c(-c4cc(O)cc5ccccc45)c(Cl)cc23)C[C@@H]1CC#N (atropisomer, axis not shown) :: < 100 nM
C=CC(=O)N1CCN(c2nc(OCCN3CCC(COc4cc([C@@H](C(=O)N5C[C@H](O)C[C@H]5C(=O)N[C@@H](C)c5ccc(-c6ccnn6C)cc5)C(C)C)on4)CC3)nc3c(F)c(-c4cc(O)cc5ccccc45)c(Cl)cc23)C[C@@H]1CC#N :: > 1000 nM
C=C(F)C(=O)N1CCN(c2nc(OCCN3CCC(F)(COc4cc([C@@H](C(=O)N5C[C@H](O)C[C@H]5C(=O)N[C@@H](C)c5ccc(-c6scnc6C)cc5)C(C)C)on4)CC3)nc3c(F)c(-c4cc(O)cc5ccccc45)c(Cl)cc23)C[C@@H]1CC#N (atropisomer, axis not shown) :: > 1000 nM

Ask | For C=C(F)C(=O)N1CCN(c2nc(OCCN3CCC(COCC(=O)N[C@H](C(=O)N4C[C@H](O)C[C@H]4C(=O)N[C@@H](C)c4ccc(-c5scnc5C)cc4)C(C)(C)C)CC3)nc3c(F)c(-c4cc(O)cc5ccccc45)c(Cl)cc23)C[C@@H]1CC#N (atropisomer, axis not shown) , write its DC50.
Reply | < 100 nM

Ask | For C=CC(=O)N1CCN(c2nc(OCCN3CCC(COCC(=O)N[C@H](C(=O)N4C[C@H](O)C[C@H]4C(=O)N[C@@H](C)c4ccc(-c5scnc5C)cc4)C(C)(C)C)CC3)nc3c(F)c(-c4nc(N)cc5ccccc45)c(Cl)cc23)C[C@@H]1CC#N , write its DC50.
Reply | 100 to 1000 nM

Ask | For C=CC(=O)N1CCN(c2nc(OCCN3CCC4(CC3)CN(c3cc([C@@H](C(=O)N5C[C@H](O)C[C@H]5C(=O)N[C@@H](C)c5ccc(-c6scnc6C)cc5)C(C)C)on3)C4)nc3c(F)c(-c4cc(O)cc5ccccc45)c(Cl)cc23)C[C@@H]1CC#N (atropisomer, axis not shown) [Compound 108] , write its DC50.
Reply | > 1000 nM

Ask | For C=CC(=O)N1CCN(c2nc(OCCN3CCC(COCC(=O)N[C@H](C(=O)N4C[C@H](O)C[C@H]4C(=O)N[C@@H](C)c4ccc(-c5scnc5C)cc4)C(C)(C)C)CC3)nc3c(F)c(-c4cc(O)cc(C)c4C)c(Cl)cc23)C[C@@H]1CC#N , write its DC50.
Reply | 100 to 1000 nM

Ask | For C=C(F)C(=O)N1CCN(c2nc(OCCN3CCC4(CC3)CN(c3cc([C@H](C(=O)N5C[C@H](O)C[C@H]5C(=O)N[C@@H](C)c5ccc(-c6scnc6C)cc5)C(C)C)on3)C4)nc3c(F)c(-c4cc(O)cc5ccccc45)c(Cl)cc23)C[C@@H]1CC#N (atropisomer, axis not shown) , write its DC50.
Reply | < 100 nM

Ask | For C=CC(=O)N1CCN(c2nc(OCCN3CCC(COC4(C(=O)N[C@H](C(=O)N5C[C@H](O)C[C@H]5C(=O)N[C@@H](C)c5ccc(-c6scnc6C)cc5)C(C)(C)C)CC4)CC3)nc3c(F)c(-c4cc(O)cc5ccccc45)c(Cl)cc23)C[C@@H]1CC#N , write its DC50.
Reply | < 100 nM

* * *

Measured DC50, listed per entry for reference.
target: HiBit-KRAS^G12C (Homo sapiens, UniProt P01116, G12C); assay: HiBit degradation assay in MiaPaCa-2 HiBit-KRas^G12C cells; format: cell-based; details: read-out: KRas^G12C-HiBiT (MiaPaCa; 0.5% DMSO) IC50; MiaPaCa-2 HiBit-KRas^G12C cells; 0.5% DMSO; 24 hours

# example entries with known answers
C=C(F)C(=O)N1CCN(c2nc(O[C@H](C)CN3CCC(COc4cc([C@H](C(=O)N5C[C@H](O)C[C@H]5C(=O)N[C@@H](C)c5ccc(-c6scnc6C)cc5)C(C)C)on4)CC3)nc3c(F)c(-c4cc(O)cc5ccccc45)c(Cl)cc23)C[C@@H]1CC#N :: 100 to 1000 nM
C=C(F)C(=O)N1CCN(c2nc(OCCN3CCC(C)(COc4cc([C@H](C(=O)N5C[C@H](O)C[C@H]5C(=O)N[C@@H](C)c5ccc(-c6scnc6C)cc5)C(C)C)on4)CC3)nc3c(F)c(-c4cc(O)cc5ccccc45)c(Cl)cc23)C[C@@H]1CC#N (atropisomer, axis not shown) :: < 100 nM

Ask | Output reported DC50 of the molecule C=C(F)C(=O)N1CCN(c2nc(OCCN3CCC(COc4cc([C@H](C(=O)N5C[C@H](O)C[C@H]5C(=O)N[C@@H](C)c5ccc(-c6ccnn6C)cc5)C(C)C)on4)CC3)nc3c(F)c(-c4cc(O)cc5ccccc45)c(Cl)cc23)C[C@@H]1CC#N [Compound 156] on HiBit-KRAS^G12C (Homo sapiens, UniProt P01116, G12C).
Reply | 100 to 1000 nM

Ask | Output reported DC50 of the molecule Cc1ncsc1-c1ccc([C@H](C)NC(=O)[C@@H]2C[C@@H](O)CN2C(=O)[C@@H](NC(=O)COCC2CCN(CCOc3nc(N4CCN(C(=O)/C=C/CN(C)C)[C@@H](CC#N)C4)c4cc(Cl)c(-c5cc(O)cc6ccccc56)c(F)c4n3)CC2)C(C)(C)C)cc1 on HiBit-KRAS^G12C (Homo sapiens, UniProt P01116, G12C).
Reply | > 1000 nM

* * *

target: HiBit-KRAS^G12C (Homo sapiens, UniProt P01116, G12C); assay: HiBit degradation assay in SW1573 HiBit-KRas^G12C cells; assay type: cell-based; parameters: expressed in transfected cells; host or cells: SW1573 (clone E6), modified pcDNA3.1 vector, TK promoter; settings: read-out: KRas^G12C-HiBiT (SW1573; 0.5% DMSO) IC50***; SW1573 HiBit-KRas^G12C, 0.5% DMSO, 24 hours
Measured DC50, listed per entry for reference.

Ask | For C=CC(=O)N1CCN(c2nc(OCCN3CCC4(CC3)CN(c3cc([C@@H](C(=O)N5C[C@H](O)C[C@H]5C(=O)N[C@@H](C)c5ccc(-c6scnc6C)cc5)C(C)C)on3)C4)nc3c(F)c(-c4cc(O)cc5ccccc45)c(Cl)cc23)C[C@@H]1CC#N [Compound 137] , write its DC50.
Reply | 100 to 1000 nM

Ask | For C=CC(=O)N1CCN(c2nc(OCCN3CCC(C)(COc4cc([C@@H](C(=O)N5C[C@H](O)C[C@H]5C(=O)N[C@@H](C)c5ccc(-c6scnc6C)cc5)C(C)C)on4)CC3)nc3c(F)c(-c4cc(O)cc5ccccc45)c(Cl)cc23)C[C@@H]1CC#N , write its DC50.
Reply | > 1000 nM

Ask | For C=CC(=O)N1CCN(c2nc(OCCN3CCC(CN(C)CC(=O)N[C@H](C(=O)N4C[C@H](O)C[C@H]4C(=O)N[C@@H](C)c4ccc(-c5scnc5C)cc4)C(C)(C)C)CC3)nc3c(F)c(-c4cc(O)cc5ccccc45)c(Cl)cc23)C[C@@H]1CC#N , write its DC50.
Reply | 100 to 1000 nM

Ask | For C=CC(=O)N1CCN(c2nc(OCCN3CCC(COCC(=O)N[C@H](C(=O)N4C[C@@H](O)C[C@H]4C(=O)N[C@@H](C)c4ccc(-c5scnc5C)cc4)C(C)(C)C)CC3)nc3c(F)c(-c4cccc5cccc(C)c45)c(Cl)cc23)C[C@@H]1CC#N , write its DC50.
Reply | > 1000 nM

Ask | For C=CC(=O)N1CCN(c2nc(N3CCN(C[C@H]4C[C@H](OCC(=O)N[C@H](C(=O)N5C[C@H](O)C[C@H]5C(=O)N[C@@H](C)c5ccc(-c6scnc6C)cc5)C(C)(C)C)C4)CC3)nc3c(F)c(-c4cc(O)cc5ccccc45)c(Cl)cc23)C[C@@H]1CC#N , write its DC50.
Reply | 100 to 1000 nM

Ask | For C=CC(=O)N1CCN(c2nc(OCCN3CCC(COCC(=O)N[C@H](C(=O)N4C[C@H](O)C[C@H]4C(=O)N[C@@H](C)c4ccc(-c5scnc5C)cc4)C(C)(C)C)CC3)nc3c(F)c(-c4nc(N)cc(C)c4C(F)(F)F)c(Cl)cc23)C[C@@H]1CC#N , write its DC50.
Reply | 100 to 1000 nM

Ask | For C=CC(=O)N1CCN(c2nc(OCCN3CCC(COCC(=O)N[C@H](C(=O)N4C[C@H](O)C[C@H]4C(=O)N[C@@H](C)c4ccc(-c5scnc5C)cc4)C(C)(C)C)CC3)nc3c(F)c(-c4nc(NC)cc(C)c4C(F)(F)F)c(Cl)cc23)C[C@@H]1CC#N , write its DC50.
Reply | 100 to 1000 nM

Ask | For C=CC(=O)N1CCN(c2nc(OCCN3CCC(COc4cc([C@H](C(=O)N5C[C@H](O)C[C@H]5C(=O)N[C@@H](C)c5ccc(-c6ccnn6C)cc5)C(C)C)on4)CC3)nc3c(F)c(-c4cc(O)cc5ccccc45)c(Cl)cc23)C[C@@H]1CC#N [Compound 157] , write its DC50.
Reply | < 100 nM

Ask | For C=CC(=O)N1CCN(c2nc(OCCN3CCC(COc4cc([C@@H](C(=O)N5C[C@@H](O)C[C@H]5C(=O)N[C@@H](C)c5ccc(-c6scnc6C)cc5)C(C)C)on4)CC3)nc3c(F)c(-c4cc(O)cc5ccccc45)c(Cl)cc23)C[C@@H]1CC#N (atropisomer, axis not shown) , write its DC50.
Reply | > 1000 nM

Ask | For C=C(F)C(=O)N1CCN(c2nc(OCCN3CCC(C)(COc4cc([C@@H](C(=O)N5C[C@H](O)C[C@H]5C(=O)N[C@@H](C)c5ccc(-c6scnc6C)cc5)C(C)C)on4)CC3)nc3c(F)c(-c4cc(O)cc5ccccc45)c(Cl)cc23)C[C@@H]1CC#N (atropisomer, axis not shown) , write its DC50.
Reply | > 1000 nM

Ask | For C=C(F)C(=O)N1CCN(c2nc(OCCN3CCC(COc4cc([C@H](C(=O)N5C[C@H](O)C[C@H]5C(=O)N[C@@H](C)c5ccc(-c6ccnn6C)cc5)C(C)C)on4)CC3)nc3c(F)c(-c4cc(O)cc5ccccc45)c(Cl)cc23)C[C@@H]1CC#N [Compound 156] , write its DC50.
Reply | < 100 nM

Ask | For C=CC(=O)N1CCN(c2nc(OCCN3CCC(COc4cc([C@H](C(=O)N5C[C@H](O)C[C@H]5C(=O)N[C@@H](C)c5ccc(-c6scnc6C)cc5)C(C)C)on4)CC3)nc3c(F)c(-c4cc(O)cc5ccccc45)c(Cl)cc23)C[C@@H]1CC#N (atropisomer, axis not shown) [Compound 173] , write its DC50.
Reply | < 100 nM

Ask | For C=CC(=O)N1CCN(c2nc(OCCN3CCC(COc4cc([C@H](C(=O)N5C[C@H](O)C[C@H]5C(=O)N[C@@H](C)c5ccc(-c6scnc6C)cc5)C(C)C)on4)CC3)nc3c(F)c(-c4cc(O)cc5ccccc45)c(Cl)cc23)CC1 (atropisomer, axis not shown) [Compound 146] , write its DC50.
Reply | > 1000 nM

Ask | For C=C(F)C(=O)N1CCN(c2nc(OCCN3CCC(F)(COc4cc([C@H](C(=O)N5C[C@H](O)C[C@H]5C(=O)N[C@@H](C)c5ccc(-c6ccnn6C)cc5)C(C)C)on4)CC3)nc3c(F)c(-c4cc(O)cc5ccccc45)c(Cl)cc23)C[C@@H]1CC#N (atropisomer, axis not shown) , write its DC50.
Reply | < 100 nM
